The entries below come with measured IC50 values attached.
biological target: CCXCKR2 receptor (Homo sapiens, UniProt P25106); construct: expressed in transfected cells; host or cells: MDA-MB-435S transfected with pcDNA3.1(+)-hRDC1 and/or MCF-7 (endogenous receptor); test: Displacement of 125I-labeled SDF-1 from the CCXCKR2 receptor on MCF-7 and/or CCXCKR2-transfected MDA-MB-435S cells (radioligand binding, filtration); details: 125I SDF-1, 3 hr at 4° C., MCF-7 and/or MDA-MB-435S cells; read-out: Activity (concentration displacing at least 50% of the SDF-1 from the CCXCKR2 receptor)
Sequence (P25106 whole entry): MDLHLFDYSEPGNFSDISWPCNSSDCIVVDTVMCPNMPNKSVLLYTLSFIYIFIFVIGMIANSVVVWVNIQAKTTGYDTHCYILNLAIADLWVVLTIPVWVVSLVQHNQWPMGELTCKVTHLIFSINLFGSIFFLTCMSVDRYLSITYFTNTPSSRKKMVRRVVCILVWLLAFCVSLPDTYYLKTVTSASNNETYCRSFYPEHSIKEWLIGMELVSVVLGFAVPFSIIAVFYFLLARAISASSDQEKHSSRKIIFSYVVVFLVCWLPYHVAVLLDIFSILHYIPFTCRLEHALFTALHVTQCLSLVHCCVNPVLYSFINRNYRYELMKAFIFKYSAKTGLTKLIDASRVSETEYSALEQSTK

INSERT INTO assay_data (chem_smiles, tested_system, result) VALUES
  ('COc1ccc(C(=O)c2cn(Cc3cccc(C(F)(F)F)n3)c3ccccc3c2=O)cc1F', 'CCXCKR2 receptor (Homo sapiens, UniProt P25106)', '< 100 nM'),
  ('COc1ccc(C(=O)c2cn(Cc3cccc(Br)n3)c3ccccc3c2=O)cn1', 'CCXCKR2 receptor (Homo sapiens, UniProt P25106)', '< 100 nM');

Incoming: Param item = `Cc1ccc(C(=O)c2cn(Cc3cccnc3)c3cc4c(cc3c2=O)OCO4)cc1C` ; retrieve measured IC50.
Outgoing: 500 to 20000 nM
